assay: Pharmacokinetics in CD-1 mice (plasma and brain); format: in vivo, mouse; conditions: CD-1, mouse, brain, oral administration 10 mg/kg, read-out: Brain t1/2 (converted)
REPORTED_ENDPOINT: half-life (h)
Your answer is read as h, so omit the unit and give the number.

## Input Give the reported half-life for this compound. COc1c(C)cccc1C(=O)Nc1cccc2ccc(C)nc12 [NDC-1173]
## Output 1.1

---

test: Pharmacokinetics in CD-1 mice (plasma and brain); assay type: in vivo, mouse; settings: CD-1, mouse, plasma, oral, 10 mg/kg P.O. vs 2 mg/kg i.v.
REPORTED_ENDPOINT: bioavailability (%)
Your answer is read as %, so omit the unit and give the number.

## Input Give the reported bioavailability for this molecule. COc1c(C)cccc1C(=O)Nc1cccc2ccc(C)nc12 [NDC-1173]
## Output 25.6

---

test: Pharmacokinetics in CD-1 mice (plasma and brain); type: in vivo, mouse; conditions: CD-1, mouse, plasma, oral administration 10 mg/kg
REPORTED_ENDPOINT: Cmax (nM)
Your answer is read as nM, so omit the unit and give the number.

## Input Give the reported Cmax for this compound. COc1c(C)cccc1C(=O)Nc1cccc2ccc(C)nc12 [NDC-1173]
## Output 1250

Value source: paper PMC10341805
